- Assay procedure: Particle size distribution by laser diffraction (Malvern Master Sizer 2000)
- Type: physicochemical
Quantity name: Particle Size Distribution d(0.9)

Per the records, this compound ( COc1ccccc1Oc1c(NS(=O)(=O)c2ccc(C(C)(C)C)cc2)nc(-c2ncccn2)nc1OCCO [Example 9E, Bosentan] ) has Particle Size Distribution d(0.9) equal to 127.11 microns
